system-tested: Retinoic acid receptor RXR-alpha (Homo sapiens) (UniProt P19793)
Sequence (P19793 whole entry, looked up): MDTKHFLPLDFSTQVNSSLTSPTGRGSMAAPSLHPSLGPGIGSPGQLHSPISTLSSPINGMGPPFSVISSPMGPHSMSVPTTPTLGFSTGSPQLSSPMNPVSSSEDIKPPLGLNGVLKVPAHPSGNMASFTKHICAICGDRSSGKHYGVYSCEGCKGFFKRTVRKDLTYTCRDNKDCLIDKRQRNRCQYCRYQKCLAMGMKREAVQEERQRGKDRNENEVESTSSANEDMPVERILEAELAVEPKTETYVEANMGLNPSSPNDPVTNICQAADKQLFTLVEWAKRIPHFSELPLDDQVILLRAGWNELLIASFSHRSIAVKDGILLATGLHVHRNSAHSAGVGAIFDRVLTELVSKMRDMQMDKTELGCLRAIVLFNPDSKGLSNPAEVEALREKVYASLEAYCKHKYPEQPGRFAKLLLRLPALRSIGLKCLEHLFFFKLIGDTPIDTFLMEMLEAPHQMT
procedure-details: qHTS assay for small molecule antagonists of retinoid X receptor alpha signaling (AID 588546);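 note: cells stimulated with 9-cis-retinoic acid as agonist; % is set by controls: 0 for no effect and ±100 for the full control effect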
condition-set: HEK293T RXRa-UAS-bla, beta-lactamase ratio, antagonist mode
Inconclusive results are not listed. Activity calls are given as the source filed them. Calls come from the whole dose curve; as a rule, active = well fitted inhibition curve with a large enough effect in the signal ratio, with a control signal flat (not every such curve was filed as active); inconclusive = small, poorly fitted or top-dose-only effect, or effect the other way, or a change in a side signal; inactive = no such curve, though single readings can be large or run the other way; the % refers to the signal ratio.
Catalogue of max response readings, one per entry.

[[record]]
chem_smiles = "C/C(=C\\c1ccc(C(=O)O)cc1)c1ccc2c(c1)C(C)(C)CCC2(C)C"
result = "9.51% (inactive)"

[[record]]
chem_smiles = "CC(=O)C(C)=O"
result = "13% (inactive)"

[[record]]
chem_smiles = "NC(=O)c1ccccc1"
result = "5.33% (inactive)"


We next turn to a different compound, shown below.
# max response measured on Retinoic acid receptor RXR-alpha (Homo sapiens) (UniProt P19793) for item CCCCCCCCCCCCCCSCC(=O)O = 5.79% (inactive)

Numbers sourced from PubChem BioAssay (NCATS).
